B1: Chromodomain-helicase-DNA-binding protein 4, residues 365 to 417; numbered along this chain, Q14839 (parent)
chain: YETDHQDYCEVCQQGGEIILCDTCPRAYHMVCLDPDMEKAPEGKWSCPHCEKE

# Variants of: B1
# test summary: abundance fitness (aPCA) (normalised: wild type 0, dead -1); higher = more abundant; growth selection in yeast, the domain comes from the species named
# condition context: Homo sapiens
property name: abundance fitness
Keep it simple and answer with nothing but the number.

mutant designation	abundance fitness
H49W	-0.175

INPUT: # abundance fitness lookup, item `W45S`
OUTPUT: 0.098

INPUT: # abundance fitness lookup, item `G15W`
OUTPUT: -0.216
